Data credit: patent US20250059187A1

Measured % covalent modification of wild type K-Ras, listed per entry.
Biological target: wild type K-Ras (Homo sapiens)
Construct: human K-Ras (wildtype, aa 1-169); 6xHis tag + TEV cleavage site (N, cleaved yes); made in house; host or cells: E. coli BL21(DE3)
Assay: Covalent modification of recombinant wild-type K-Ras by whole-protein mass spectrometry
Format: binding
Conditions: 24-h incubation, 100 μM compound, 23° C., pH 7.5
Returns: string containing the number followed by the unit.

CN1CCC[C@H]1COc1nc2c(c(N3CCC4OC(=O)C4C3)n1)CCN(c1cccc3cccc(Cl)c13)C2 (stereo partly shown) = 0%
O=C1O[C@H]2CN(c3nc(OCC45CCCN4CCC5)nc4c(F)c(-c5cccc6cccc(Cl)c56)ncc34)CC[C@@H]12 = 0%
CN1CCC[C@@H]1COc1nc2c(c(N3CC[C@H]4C(=O)O[C@H]4C3)n1)CCN(c1cccc3cccc(Cl)c13)C2 = 7.5%

Proceeding to the next molecule to report its % covalent modification of wild type K-Ras.
Query :: // query % covalent modification of wild type K-Ras value for entry "CN1CCC[C@@H]1COc1nc2c(c(N3CCC4(CC3)COC4=O)n1)CCN(c1cccc3cccc(Cl)c13)C2"
Result :: 73.7%

====

Tested on: Ba/F3:K-Ras(G12S) cells (without IL-3)
Experiment: Cell viability assay (CellTiter-Glo), Ba/F3:K-Ras(G12S) cells
Type: cell-based, murine
Conditions: Mus musculus, BaF3; no IL-3, 72 h; read-out: IC50, growth of K-Ras(G12S)-transduced Ba/F3 cells
measured_endpoint: IC50 (nM)
All answers are understood in nM, so give the number only.

Query :: # IC50 lookup, item O=C1O[C@H]2CN(c3nc(OCC45CCCN4CCC5)nc4c(F)c(-c5cccc6cccc(Cl)c56)ncc34)CC[C@@H]12 [5′]
Result :: 2400

====

Target: wild type K-Ras (Homo sapiens, UniProt P01116)
Construct: human K-Ras (wildtype, aa 1-169); 6xHis tag + TEV cleavage site (N, cleaved yes); made in house; host or cells: E. coli BL21(DE3)
Assay: Covalent modification of test protein after incubation with compound
Format: binding
Details: 24-h incubation with 100 μM compound at 23° C. at pH 7.5
Reported values of % covalent modification of wild type K-Ras for individual entries
# value in %; strip the unit string

As a guide, the following entries are already answered.
CN1CCC[C@@H]1COc1nc2c(c(N3CC[C@H]4OC(=O)[C@@]4(C)C3)n1)CCN(c1cccc3cccc(Cl)c13)C2 = 0
Cc1ccc2[nH]ncc2c1-c1cc2ncnc(N3CCC(C(=O)N[C@H]4COC4=O)CC3)c2cc1Cl = 4.6
O=C1O[C@H]2CN(c3nc(OCC45CCCN4CCC5)nc4c3CCN(c3cccc5cccc(Cl)c35)C4)CC[C@@H]12 = 0
CC1(c2cc(NCC(=O)N3CC[C@@]4(C)C(=O)O[C@H]4C3)c(O)cc2Cl)CC1 = 0
O=C1OCC12CCN(c1nc(OCC34CCCN3CCC4)nc3c(F)c(-c4cccc5cccc(Cl)c45)ncc13)CC2 = 0
C#Cc1c(F)ccc2cc(O)cc(-c3ncc4c(N5C[C@H]6CC[C@@H](C5)N6C(=O)[C@@H]5OC(=O)[C@H]5C(C)C)nc(OC[C@@]56CCCN5C[C@H](F)C6)nc4c3F)c12 = 0

Query :: What measured % covalent modification of wild type K-Ras goes with "CN1CCC[C@@H]1COc1nc2c(c(N3C[C@@H]4OC(=O)[C@@H]4C3)n1)CCN(c1cccc3cccc(Cl)c13)C2" ?
Result :: 6.0

Query :: Returns the measured % covalent modification of wild type K-Ras for the input compound. Input: "CC1(c2cc(NCC(=O)N[C@@H]3COC3=O)c(O)cc2Cl)CC1"
Result :: 0

Query :: Given the entry "Cc1ccc2[nH]ncc2c1-c1cc2ncnc(N3CCC(C(=O)N[C@@H]4COC4=O)CC3)c2cc1Cl" , report its measured % covalent modification of wild type K-Ras.
Result :: 1.5

Query :: Could you share which % covalent modification of wild type K-Ras value was measured for "O=C1OCC12CCN(c1nc(OCC34CCCN3CCC4)nc3c1CCN(c1cccc4cccc(Cl)c14)C3)CC2" ?
Result :: 85.8

Query :: Name the reported % covalent modification of wild type K-Ras value associated with the compound "C#Cc1cccc2cccc(-c3ncc4c(N5C[C@H]6CC[C@@H](C5)N6C(=O)[C@@H]5OC(=O)[C@H]5C(C)C)nc(OCC56CCCN5CCC6)nc4c3F)c12"
Result :: 0

Query :: Endpoint output: % covalent modification of wild type K-Ras of "Cc1ccc2[nH]ncc2c1-c1cc2ncnc(N3CC(C(=O)N[C@H]4COC4=O)C3)c2cc1Cl" . Value?
Result :: 18.6

Query :: Quick one: % covalent modification of wild type K-Ras for "CC(C)[C@@H]1C(=O)O[C@H]1C(=O)N1[C@@H]2CC[C@H]1CN(c1nc(OCC34CCCN3CCC4)nc3c(F)c(-c4cccc5cccc(Cl)c45)ncc13)C2" ?
Result :: 0

====

Molecular target: wild type K-Ras (Homo sapiens, UniProt P01116)
Construct: human K-Ras (wildtype, aa 1-169); 6xHis tag + TEV cleavage site (N, cleaved yes); made in house; host or cells: E. coli BL21(DE3)
Test: Covalent modification of recombinant wild-type K-Ras by whole-protein mass spectrometry
Format: binding
Conditions: 24-h incubation, 100 μM compound, 23° C., pH 7.5
measured_endpoint: % covalent modification of wild type K-Ras (%)
Quick note: give the figure in %, leave out the unit.

CN1CCC[C@@H]1COc1nc2c(c(N3CC[C@H]4OC(=O)[C@@]4(C)C3)n1)CCN(c1cccc3cccc(Cl)c13)C2 = 0

Query :: I am curious: what % covalent modification of wild type K-Ras value has been reported for CN1CCC[C@H]1COc1nc2c(c(N3CCC4C(=O)OC4C3)n1)CCN(c1cccc3cccc(Cl)c13)C2 (stereo partly shown) ?
Result :: 7.0

Query :: Recorded % covalent modification of wild type K-Ras for "O=C1O[C@@H]2CCN(c3ncnc4c(F)c(-c5ccccc5F)c(Cl)cc34)C[C@H]12" , please?
Result :: 0

Query :: Look up % covalent modification of wild type K-Ras for this compound: "CN1CCC[C@@H]1COc1nc2c(c(N3CCC4(CC3)CN(S(=O)(=O)O)C4=O)n1)CCN(c1cccc3cccc(Cl)c13)C2"
Result :: 0

====

Target: K-Ras G12E (Homo sapiens, UniProt P01116, G12E)
Construct: human K-Ras (G12E, aa 1-169); 6xHis tag + TEV cleavage site (N, cleaved yes); made in house; host or cells: E. coli BL21(DE3)
Assay: Covalent modification of test protein after incubation with compound
Type: binding
Conditions: 24-h incubation with 100 μM compound at 23° C. at pH 7.5
measured_endpoint: % covalent modification of K-Ras G12E (%)
Quick reminder: number only, in %, skip the unit.

Cc1ccc2[nH]ncc2c1-c1cc2ncnc(N3CCC(C(=O)N[C@H]4COC4=O)CC3)c2cc1Cl = 2.1

Query :: For the compound "CC1(c2cc(NCC(=O)N3CC[C@@]4(C)C(=O)O[C@H]4C3)c(O)cc2Cl)CC1" , what % covalent modification of K-Ras G12E is on record?
Result :: 0

Query :: I am curious: what % covalent modification of K-Ras G12E value has been reported for "CN1CCC[C@@H]1COc1nc2c(c(N3CCC4(CC3)COC4=O)n1)CCN(c1cccc3cccc(Cl)c13)C2" ?
Result :: 72.6

Query :: Sample O=C1CC(C(=O)N2[C@@H]3CC[C@H]2CN(c2nc(OCC45CCCN4CCC5)nc4c(F)c(-c5cccc6cccc(Cl)c56)ncc24)C3)O1 (stereo partly shown) — what was its % covalent modification of K-Ras G12E?
Result :: 42.0

====

Target: K-Ras(G12S) (Homo sapiens, UniProt P01116, G12S)
Assay: Covalent modification of recombinant K-Ras(G12S) by whole-protein mass spectrometry
Assay type: binding
Design: human K-Ras (G12S, aa 1-169); 6xHis tag + TEV cleavage site (N, cleaved yes); made in house; host or cells: E. coli BL21(DE3)
Settings: 10 μM compound, 23° C.
Experimental: Test compounds were prepared as 100× stock solutions in DMSO. K-Ras proteins were diluted with SEC Buffer (20 mM HEPES 7.5, 150 mM NaCl, 1 mM MgCl2) to 400 nM or 1 μM. In a typical reaction, 0.5 μL 100× compound stock was mixed with 50 μL diluted K-Ras protein, and the resulting mixture was incubated for the desired amount of time. The extent of modification was assessed by electrospray mass spectrometry using a Waters Xevo G2-XS system equipped with an Acquity UPLC BEH C4 1.7 μm column. […]
measured_endpoint: covalent reaction with K-Ras(G12S)·GDP

O=C1O[C@H]2CN(c3nc(OCC45CCCN4CCC5)nc4c(F)c(-c5cccc6cccc(Cl)c56)ncc34)CC[C@@H]12 = enhanced reaction
CN1CCC[C@H]1COc1nc2c(c(N3CC[C@H]4C(=O)O[C@H]4C3)n1)CCN(c1cccc3cccc(Cl)c13)C2 = enhanced reaction
O=C1O[C@H]2CN(c3nc(OCC45CCCN4CCC5)nc4c3CCN(c3cccc5cccc(Cl)c35)C4)CC[C@@H]12 = enhanced reaction
